Entry source: patent US10004701B2

- System: S. aureus strain USA300-0114
- procedure.summary: AK assay 384-well format, Prestwick library screening
- Assay type: cell-based, Staphylococcus aureus
- test.conditions: Staphylococcus aureus, USA300, 3 h; 50 μM final drug concentration; 384-well format; cutoff for positive-scoring molecules 3-fold increase; read-out: AK-based Prestwick Library Screening Results, S. aureus (increase in extracellular AK activity)
Where a name gives a salt, the structure may show the parent alone.
Where fold induction at 50 µM equals or exceeds 0.8, the correct label is Condition met; where it does not, the label is Condition not met.

Use the examples below as a reference point.
CNCCC=C1c2ccccc2CCc2ccccc21 [Nortriptyline hydrochloride] | Condition met
CCCCOc1ccc(CC(=O)NO)cc1 | Condition not met

Kindly determine if fold induction at 50 µM recorded for O=C1CN(/N=C/c2ccc([N+](=O)[O-])o2)C(=O)N1 is above or exactly 0.8. Condition not met

Check this compound for fold induction at 50 µM at or above 0.8: COc1ccc(OC)c(C(O)CNC(=O)CN)c1 (stereo not shown) [Midodrine hydrochloride] Condition met

Decide: is the reported value of fold induction at 50 µM for CN(C)CCC=C1c2ccccc2COc2ccccc21 [Doxepin hydrochloride] equal to or greater than 0.8? Condition met

// inclusive: fold induction at 50 µM at least 0.8? input: COc1c2occc2c(OC)c2c(=O)cc(C)oc12 Condition not met

Tell me whether fold induction at 50 µM is at least 0.8 here: Nc1nc(N)c2nc(-c3ccccc3)c(N)nc2n1 Condition not met

Check the entry NNC(=O)c1ccncc1 : does fold induction at 50 µM equal or exceed 0.8? Condition not met

###

# maps each entry to its fold induction at 50 µM
- Tested on: P. aeruginosa
- procedure.summary: AK assay 384-well format, Prestwick library screening
- Type: cell-based, Pseudomonas aeruginosa
- test.conditions: Pseudomonas aeruginosa, 3 h; 50 μM final drug concentration; planktonic; cutoff for positive 3-fold increase; read-out: AK-based Prestwick Library Screening Results, P. aeruginosa (fold increase in extracellular AK activity)
Where a name gives a salt, the structure may show the parent alone.
Just the number, please, no unit after it.

Some solved entries appear below for comparison.
CCOc1ccc(NC(C)=O)cc1 [Phenacetin] | 0.9
CC1(C)O[C@@H]2C[C@H]3[C@@H]4C[C@H](F)C5=CC(=O)CC[C@]5(C)[C@H]4[C@@H](O)C[C@]3(C)[C@]2(C(=O)CO)O1 [Flurandrenolide] | 0.4
Cc1cccc(CN2CCN(C(c3ccccc3)c3ccc(Cl)cc3)CC2)c1 (stereo not shown) [Meclozine dihydrochloride] | 1.2

Which fold induction at 50 µM value belongs to CC(=O)[C@H]1CC[C@H]2[C@@H]3CCC4=CC(=O)CC[C@]4(C)[C@H]3CC[C@]12C [Progesterone] ? 1

###

- Test system: E. faecium
- procedure.summary: AK assay 384-well format, Prestwick library screening
- Type: cell-based, Enterococcus faecium
- test.conditions: Enterococcus faecium, 3 h; 50 μM final drug concentration; cutoff for positive-scoring molecules 3-fold increase; read-out: AK-based Prestwick Library Screening Results, E. faecium (fold increase in extracellular AK activity)
Where a name gives a salt, the structure may show the parent alone.
assay.endpoint: fold induction at 50 µM
Lab note: write the figure by itself, no unit.

Cc1cc2cc3c(C)cc(=O)oc3c(C)c2o1 | 0.9
CCN(CC)CCOC(=O)C(c1ccccc1)C1CCCCC1 (stereo not shown) [Drofenine hydrochloride] | 1
CNC(=C[N+](=O)[O-])NCCSCc1csc(CN(C)C)n1 | 1
C[N+](C)(C)CCOC(N)=O | 1.1
C[N+](C)(C)CCCCCCCCCC[N+](C)(C)C [Decamethonium bromide] | 0.9
COc1cc(C(=O)OC2CC3CCC(C2)N3C)ccc1O (stereo not shown) | 1

Any idea what its fold induction at 50 µM is? The molecule is O=c1oc2ccccc2c(O)c1Cc1c(O)c2ccccc2oc1=O 1.3

Need fold induction at 50 µM of COc1cc2nc(N3CCN(C(=O)C4COc5ccccc5O4)CC3)nc(N)c2cc1OC (stereo not shown) [Doxazosin mesylate] , thanks. 1.1

Reported fold induction at 50 µM for c1ccc2c(c1)CCCC2C1=NCCN1 (stereo not shown) [Tetrahydrozoline hydrochloride] : what is it? 1

# query: fold induction at 50 µM of entry CN(C)[C@@H]1C(O)=C(C(=O)NCN2CCCC2)C(=O)[C@@]2(O)C(O)=C3C(=O)c4c(O)cccc4[C@@](C)(O)[C@H]3C[C@@H]12 1

For the molecule CNCCCC1c2ccccc2C=Cc2ccccc21 [Protriptyline hydrochloride] , what fold induction at 50 µM is on record? 1

Reported fold induction at 50 µM, molecule Nc1[nH]c(=O)ncc1F : ____ 0.9

Endpoint output: fold induction at 50 µM of CN1CCN(C(c2ccccc2)c2ccc(Cl)cc2)CC1 (stereo not shown) [Chlorcyclizine hydrochloride] . Value? 1
